target: pDNA-PK ser2056 induction in HCT116 spheroids (Homo sapiens, UniProt P78527); construct: endogenous in cells; host or cells: HCT116 multicellular tumour spheroids; test: Multicellular tumour spheroid + radiation, pDNA-PK inhibition, HCT116; type: cell-based; conditions: Example 8; spheroid; 20 Gy; read-out: Cell line: HCT116 Immunohistochemical endpoint pDNA-PK inhibition EC50
testReadout: EC50

Examples with answers:
>  <compound>
Brc1cnc2cc(N3CCOCC3)nc(O[C@H]3CC[C@@H](Nc4ncccn4)CC3)c2c1 [Compound 18a]

>  <EC50>
1000 to 10000 nM

$$$$
>  <compound>
FC(F)(F)c1cncn1[C@H]1CC[C@@H](Oc2nc(N3CCOCC3)cc3ncccc23)CC1 [Compound 17j]

>  <EC50>
500 to 1000 nM

$$$$
>  <compound>
Brc1cnc2cc(N3CCOCC3)nc(O[C@H]3CC[C@@H](n4ccnc4)CC3)c2c1 [Compound 10]

>  <EC50>
1000 to 10000 nM

$$$$

Qu. Consider the compound O=C(N[C@H]1CC[C@@H](Oc2nc(N3CCOCC3)cc3ncccc23)CC1)c1ccc(C(F)(F)F)o1 [Compound 133] and give its measured EC50.
Ans. 1000 to 10000 nM

---

# reported pEC50; entries follow
Molecular target: pDNA-PK ser2056 induction in HCT116 spheroids (Homo sapiens)
Construct: endogenous in cells; host or cells: HCT116 multicellular tumour spheroids
Experiment: Multicellular tumour spheroid + radiation, pDNA-PK inhibition, HCT116
Type: cell-based
Conditions: Example 9 Study 2; 20 Gy; 20% O2; read-out: Spheroid Cell line: HCT116 Immunohistochemical endpoint pDNA-PK inhibition EC50
Protocol: Multicellular tumour spheroids determination of compound inhibition of pDNA-PK induction following radiation. […] Multicellular tumour spheroids determination of compound inhibition of pDNA-PK induction following radiation. […] For cell survival endpoint 8 Gy radiation was used and 3 hours following radiation spheroids were dissociated, counted and plated for colony forming endpoint. […]
pEC50: −log10 of the molar value.

>  <molecule>
Clc1nc(N[C@H]2CC[C@@H](Oc3nc(N4CCOCC4)cc4ncccc34)CC2)c2occc2n1 [Compound 80b]

>  <system>
pDNA-PK ser2056 induction in HCT116 spheroids (Homo sapiens)

>  <testReadout>
pEC50

>  <measured>
5.00 to 6.00

$$$$
>  <molecule>
COc1nccnc1N[C@H]1CC[C@@H](Oc2nc(N3CCOCC3)cc3ncccc23)CC1 [Compound 39]

>  <system>
pDNA-PK ser2056 induction in HCT116 spheroids (Homo sapiens)

>  <testReadout>
pEC50

>  <measured>
5.00 to 6.00

$$$$
>  <molecule>
Brc1cnc2cc(N3CCOCC3)nc(O[C@H]3CC[C@@H](Nc4ncccn4)CC3)c2c1 [Compound 18a]

>  <system>
pDNA-PK ser2056 induction in HCT116 spheroids (Homo sapiens)

>  <testReadout>
pEC50

>  <measured>
5.00 to 6.00

$$$$
>  <molecule>
O=C(N[C@H]1CC[C@@H](Oc2nc(N3CCOCC3)cc3ncccc23)CC1)c1cccnc1 [Compound 115]

>  <system>
pDNA-PK ser2056 induction in HCT116 spheroids (Homo sapiens)

>  <testReadout>
pEC50

>  <measured>
5.00 to 6.00

$$$$
>  <molecule>
COc1ccnc(N[C@H]2CC[C@@H](Oc3nc(N4CCOCC4)cc4ncccc34)CC2)n1 [Compound 49]

>  <system>
pDNA-PK ser2056 induction in HCT116 spheroids (Homo sapiens)

>  <testReadout>
pEC50

>  <measured>
5.00 to 6.00

$$$$

Qu. Form field: reported pEC50 of c1cnc(N[C@H]2CC[C@@H](Oc3nc(N4CCOCC4)cc4ncccc34)CC2)nc1 [Compound 20a]
Ans. 6.00 to 6.30

Qu. Could you share which pEC50 value was measured for O=C(O)c1cnc(N[C@H]2CC[C@@H](Oc3nc(N4CCOCC4)cc4ncccc34)CC2)nc1 [Compound 51] ?
Ans. 6.00 to 6.30

Qu. What value of pEC50 has been recorded for this entry: O=C(N[C@H]1CC[C@@H](Oc2nc(N3CCOCC3)cc3ncccc23)CC1)c1ccc(Cl)nc1 [Compound 116]
Ans. 5.00 to 6.00

Qu. Any idea what its pEC50 is? The molecule is Cc1nccnc1N[C@H]1CC[C@@H](Oc2nc(N3CCOCC3)cc3ncccc23)CC1 [Compound 36]
Ans. 5.00 to 6.00

Qu. Consider the molecule shown here: FC(F)(F)c1cnc(N[C@H]2CC[C@@H](Oc3nc(N4CCOCC4)cc4ncccc34)CC2)nc1 [Compound 34] What is its recorded pEC50?
Ans. 5.00 to 6.00

Qu. What value of pEC50 has been recorded for this entry: COc1cnc(N[C@H]2CC[C@@H](Oc3nc(N4CCOCC4)cc4ncc(I)cc34)CC2)nc1 [Compound 201]
Ans. 4.00 to 5.00

Qu. What value of measured pEC50 is listed for O=C(N[C@H]1CC[C@@H](Oc2nc(N3CCOCC3)cc3ncccc23)CC1)c1ccccc1 [Compound 110] ?
Ans. 5.00 to 6.00

Qu. Which pEC50 is listed for CCCC(=O)N[C@H]1CC[C@@H](Oc2nc(N3CCOCC3)cc3ncccc23)CC1 [Compound 103] ?
Ans. 4.00 to 5.00

Qu. Item under review: O=C(N[C@H]1CC[C@@H](Oc2nc(N3CCOCC3)cc3ncccc23)CC1)c1cncs1 [Compound 137] . Reported pEC50?
Ans. 6.00 to 6.30

Qu. Entry c1ccc(N[C@H]2CC[C@@H](Oc3nc(N4CCOCC4)cc4ncccc34)CC2)nc1 [Compound 25] : reported pEC50 = ?
Ans. 5.00 to 6.00

Qu. Fill in: pEC50 of CCCS(=O)(=O)Nc1cnc2cc(N3CCOCC3)nc(O[C@H]3CC[C@@H](Nc4ncccn4)CC3)c2c1 [Compound 189] is ___
Ans. 4.00 to 5.00

---

target: pDNA-PK ser2056 induction in HCT116 spheroids (Homo sapiens, UniProt P78527); construct: endogenous in cells; host or cells: HCT116 multicellular tumour spheroids; assay: Multicellular tumour spheroid + radiation, pDNA-PK inhibition, HCT116; type: cell-based; details: Example 9 Study 2; 20 Gy; 20% O2; read-out: Spheroid Cell line: HCT116 Immunohistochemical endpoint pDNA-PK inhibition EC50
pEC50: −log10 of the molar value.
testReadout: pEC50

Below are worked cases with known answers.
>  <molecule>
O=C(N[C@H]1CC[C@@H](Oc2nc(N3CCOCC3)cc3ncccc23)CC1)c1ncc[nH]1 [Compound 143]

>  <pEC50>
6.00 to 6.30

$$$$
>  <molecule>
Cc1c(C(F)(F)F)cnn1[C@H]1CC[C@@H](Oc2nc(N3CCOCC3)cc3ncccc23)CC1 [Compound 17h]

>  <pEC50>
4.00 to 5.00

$$$$
>  <molecule>
Cn1cnc(N[C@H]2CC[C@@H](Oc3nc(N4CCOCC4)cc4ncccc34)CC2)n1 [Compound 31]

>  <pEC50>
5.00 to 6.00

$$$$
>  <molecule>
CCOCCOc1cnc(N[C@H]2CC[C@@H](Oc3nc(N4CCOCC4)cc4ncc(Br)cc34)CC2)nc1 [Compound 18b]

>  <pEC50>
5.00 to 6.00

$$$$
>  <molecule>
c1cnc2cc(N3CCOCC3)nc(O[C@H]3CC[C@@H](Nc4ncnc5ccoc45)CC3)c2c1 [Compound 80a]

>  <pEC50>
6.30 to 8.00

$$$$

Qu. Under pDNA-PK ser2056 induction in HCT116 spheroids (Homo sapiens, UniProt P78527): pEC50 value of COc1cnc(N[C@H]2CC[C@@H](Oc3nc(N4CCOCC4)cc4ncc(O)cc34)CC2)nc1 [Compound 19c] ?
Ans. 5.00 to 6.00

Qu. Look up pEC50 with pDNA-PK ser2056 induction in HCT116 spheroids (Homo sapiens, UniProt P78527) for this molecule: O=C(N[C@H]1CC[C@@H](Oc2nc(N3CCOCC3)cc3ncccc23)CC1)c1ccc(F)cc1 [Compound 111]
Ans. 5.00 to 6.00

---

target: DNA-PK (Homo sapiens, UniProt P78527); construct: purchased Invitrogen PR9107A; experiment: DNA-PK Assay for Biochemical Enzymatic Inhibition (ADP Glo Kinase assay); conditions: Table 1
pIC50: −log10 of the molar value.
testReadout: pIC50

Use the examples below as a reference point.
>  <molecule>
O=C(N[C@H]1CC[C@@H](Oc2nc(N3CCOCC3)cc3ncccc23)CC1)c1nccs1

>  <pIC50>
> 9.30

$$$$
>  <molecule>
O=C(N[C@H]1CC[C@@H](Oc2nc(N3CCOCC3)cc3ncccc23)CC1)c1ncco1

>  <pIC50>
9.00 to 9.30

$$$$
>  <molecule>
Cn1ccc(N[C@H]2CC[C@@H](Oc3nc(N4CCOCC4)cc4ncccc34)CC2)n1

>  <pIC50>
8.00 to 9.00

$$$$
>  <molecule>
Nc1cnc2cc(N3CCOCC3)nc(O[C@H]3CC[C@@H](Nc4ncccn4)CC3)c2c1

>  <pIC50>
> 9.30

$$$$
>  <molecule>
c1cnnc(N[C@H]2CC[C@@H](Oc3nc(N4CCOCC4)cc4ncccc34)CC2)c1

>  <pIC50>
> 9.30

$$$$
>  <molecule>
FC(F)(F)c1cn([C@H]2CC[C@@H](Oc3nc(N4CCOCC4)cc4ncccc34)CC2)cn1 [Compound 17k]

>  <pIC50>
> 9.30

$$$$

Qu. Quick check: pIC50 of COc1ccc(S(=O)(=O)N[C@H]2CC[C@@H](Oc3nc(N4CCOCC4)cc4ncccc34)CC2)cc1 ?
Ans. 6.82 to 8.00

Qu. What value of measured pIC50 is listed for Oc1cnc2cc(N3CCOCC3)nc(O[C@H]3CC[C@@H](Nc4ncccn4)CC3)c2c1 [Compound 19a] ?
Ans. 8.00 to 9.00

Qu. Data request, read-out pIC50, for Cn1cnc2cnc(N[C@H]3CC[C@@H](Oc4nc(N5CCOCC5)cc5ncccc45)CC3)nc21
Ans. 9.00 to 9.30

Recorded values, source patent US20240246960A1.
